Listed next: entries and their corresponding Fold inc. vs anti-CXCR4 building block, MOLM-13.
Assayed Target: human CXCR4 (on cells, membrane extracts or viral lipoparticles) (human, UniProt P61073 1-352)
Sequence (P61073 whole entry): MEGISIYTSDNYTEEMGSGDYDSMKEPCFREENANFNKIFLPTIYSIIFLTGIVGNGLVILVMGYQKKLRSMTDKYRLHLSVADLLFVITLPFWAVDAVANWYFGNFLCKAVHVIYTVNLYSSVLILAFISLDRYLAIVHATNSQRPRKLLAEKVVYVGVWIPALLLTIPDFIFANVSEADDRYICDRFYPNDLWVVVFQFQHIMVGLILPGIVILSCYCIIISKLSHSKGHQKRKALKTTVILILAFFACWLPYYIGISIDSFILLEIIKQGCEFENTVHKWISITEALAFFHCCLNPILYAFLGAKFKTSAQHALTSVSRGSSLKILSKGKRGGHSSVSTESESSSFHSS
Assay: cell-based or functional assay
The reply should be a number in fold, with the unit left off.

{"Binder": "55A01-14D09 (A0110055A01-35GS-4CXCR014D09(Q108L)) (bispecific antibody, the entry carries a c-myc-His6 tag; also made as Flag3-His6-tagged protein; also called CD123#2-CXCR4#1; BI#8/22) EVQLVESGGGSVQAGGSLRLSCTTSGRALNMYVMGWFRQAPGNEREFVAATSSSGGSTSYPDSVKGRFTISRDNAKNTVYLQMNSLKPEDTAAYRCAASPYVSTPTMNILEEYRYWGQGTLVTVSSGGGGSGGGGSGGGGSGGGGSGGGGSGGGGSGGGGSEVQLVESGGGLVQAGGSLRLSCVASGISSSKRNMGWYRQAPGKQRESVATISSGGNKDYTDAVKDRFTISRDTTKNTVYLQMNSLKPEDTAVYYCKIEAGTGWATRRGYTYWGQGTLVTVSSAAAEQKLISEEDLNGAAHHHHHH", "Units Symbol": "fold", "Recorded Number": 0.03}

Let's switch to this binder now.
Bench note: what Fold inc. vs anti-CXCR4 building block, MOLM-13 did 14D09-55A01 (4CXCR014D09(Q108L)-35GS-A0110055A01) (bispecific antibody, the entry carries a c-myc-His6 tag; also made as Flag3-His6-tagged protein; also called CXCR4#1-CD123#2; BI#7/19) EVQLVESGGGLVQAGGSLRLSCVASGISSSKRNMGWYRQAPGKQRESVATISSGGNKDYTDAVKDRFTISRDTTKNTVYLQMNSLKPEDTAVYYCKIEAGTGWATRRGYTYWGQGTLVTVSSGGGGSGGGGSGGGGSGGGGSGGGGSGGGGSGGGGSEVQLVESGGGSVQAGGSLRLSCTTSGRALNMYVMGWFRQAPGNEREFVAATSSSGGSTSYPDSVKGRFTISRDNAKNTVYLQMNSLKPEDTAAYRCAASPYVSTPTMNILEEYRYWGQGTLVTVSSAAAEQKLISEEDLNGAAHHHHHH show?
2.39
